Recorded inhibition at 10 µM for the following molecules
# System: NCI-H23
# Test details: NCI 60-cell line one-dose antiproliferative screen (SRB)
# Type: cell-based
# Stated conditions: Homo sapiens, read-out: growth inhibition % (GI%)

# Line notation, Experimental readout, Obs value
data = [
    ("Cc1ccc(C(=O)c2ccc(CC(=O)NNC(=O)Nc3c(C)cccc3Cl)n2C)cc1", "inhibition at 10 µM", "< 10%"),
    ("Cc1ccc(C(=O)c2ccc(CC(=O)NN=C3C(=O)Nc4ccc(Br)cc43)n2C)cc1", "inhibition at 10 µM", "13.7%"),
]

Switching to the query record.
Query: Indicate the recorded inhibition at 10 µM value for this molecule: `Cc1ccc(C(=O)c2ccc(CC(=O)NN=Cc3c[nH]c4ccccc34)n2C)cc1`
Reply: < 10%

* * *

# Tested on: NCI-H23
# Test details: NCI 60-cell line one-dose antiproliferative screen (SRB)
# Assay type: cell-based
# Stated conditions: Homo sapiens, read-out: growth inhibition % (GI%)
Recorded inhibition at 10 µM for the following compounds

Reference set, count: 2
# Compound, Measured on, Experimental readout, Obs value
data = [
    ("Cc1ccc(C(=O)c2ccc(CC(=O)NN=Cc3ccc4c(c3)OCO4)n2C)cc1 [Compound 5d]", "NCI-H23", "inhibition at 10 µM", "< 10%"),
    ("Cc1ccc(C(=O)c2ccc(CC(=O)NNC(=O)Nc3c(Cl)cccc3Cl)n2C)cc1 [Compound 8a]", "NCI-H23", "inhibition at 10 µM", "< 10%"),
]

Switching to the query record.
Query: Indicate the recorded inhibition at 10 µM value for this compound: Cc1ccc(C(=O)c2ccc(CC(=O)NN3C(=O)c4ccccc4C3=O)n2C)cc1 [Compound 7c]
Reply: < 10%

* * *

# Test system: T-47D
# Test details: NCI 60-cell line one-dose antiproliferative screen (SRB)
# Format: cell-based
# Stated conditions: Homo sapiens, T47D, read-out: growth inhibition % (GI%)
Parameter threshold = 40%. Response is class 1 when inhibition at 10 µM meets or exceeds it, else class 0.

# Molecule, Assigned label
rows = [
    ("Cc1ccc(C(=O)c2ccc(CC(=O)NNC(=O)Nc3ccc(Cl)c(C(F)(F)F)c3)n2C)cc1 [Compound 8c]", "class 0"),
    ("Cc1ccc(C(=O)c2ccc(CC(=O)NN=Cc3ccc(O)cc3O)n2C)cc1 [Compound 5c]", "class 1"),
    ("Cc1ccc(C(=O)c2ccc(CC(=O)NN=Cc3cccc(O)c3O)n2C)cc1 [Compound 5b]", "class 1"),
]

Query: Would you say Cc1ccc(C(=O)c2ccc(CC(=O)NN3C(=O)CCC3=O)n2C)cc1 [Compound 7a] shows inhibition at 10 µM at minimum 40%?
Reply: class 1

Query: Would you say Cc1ccc(C(=O)c2ccc(CC(=O)NN3C(=O)C=CC3=O)n2C)cc1 [Compound 7b] shows inhibition at 10 µM at minimum 40%?
Reply: class 0

Query: Would you say Cc1ccc(C(=O)c2ccc(CC(=O)NN=Cc3ccc4c(c3)OCO4)n2C)cc1 [Compound 5d] shows inhibition at 10 µM at minimum 40%?
Reply: class 0

Query: Would you say Cc1ccc(C(=O)c2ccc(CC(=O)NN=Cc3cc4ccccc4[nH]3)n2C)cc1 [Compound 5e] shows inhibition at 10 µM at minimum 40%?
Reply: class 0

* * *

# Test system: 786-0
# Test details: NCI 60-cell line one-dose antiproliferative screen (SRB)
# Type: cell-based
# Stated conditions: Homo sapiens, read-out: growth inhibition % (GI%)
Recorded inhibition at 10 µM for the following molecules
# unit: % | format: bare number

# Line notation, inhibition at 10 µM, %
data = [
    ("Cc1ccc(C(=O)c2ccc(CC(=O)NN=Cc3ccc(O)cc3O)n2C)cc1", 56.6),
]

Switching to the query record.
Query: Report inhibition at 10 µM on 786-0 for this entry: `Cc1ccc(C(=O)c2ccc(CC(=O)NN=Cc3cccc(O)c3O)n2C)cc1`
Reply: 23.6

* * *

Recorded inhibition at 10 µM for the following molecules
# Tested on: HOP-62
# Test details: NCI 60-cell line one-dose antiproliferative screen (SRB)
# Format: cell-based
# Stated conditions: Homo sapiens, read-out: growth inhibition % (GI%)

Reference set, count: 2
# Line notation, Measured on, inhibition at 10 µM
measured = [
    ("Cc1ccc(C(=O)c2ccc(CC(=O)NN=Cc3ccc4c(c3)OCO4)n2C)cc1", "HOP-62", "< 10%"),
    ("Cc1ccc(C(=O)c2ccc(CC(=O)NN=Cc3c[nH]c4ccccc34)n2C)cc1", "HOP-62", "< 10%"),
]

Switching to the query record.
Query: Report inhibition at 10 µM on HOP-62 for this entry: `Cc1ccc(C(=O)c2ccc(CC(=O)NN3C(=O)c4ccccc4C3=O)n2C)cc1`
Reply: < 10%

* * *

Recorded inhibition at 10 µM for the following compounds
# System: NCI-H23
# Test details: NCI 60-cell line one-dose antiproliferative screen (SRB)
# Format: cell-based
# Stated conditions: Homo sapiens, read-out: growth inhibition % (GI%)

Reference set, count: 2
# Compound, inhibition at 10 µM
records = [
    ("Cc1ccc(C(=O)c2ccc(CC(=O)NN=C3C(=O)Nc4ccccc43)n2C)cc1 [Compound 6a]", "< 10%"),
    ("Cc1ccc(C(=O)c2ccc(CC(=O)NN3C(=O)C=CC3=O)n2C)cc1 [Compound 7b]", "23.9%"),
]

Query: Indicate the recorded inhibition at 10 µM value for this compound: Cc1ccc(C(=O)c2ccc(CC(=O)NNC(=O)Nc3ccc(Cl)c(C(F)(F)F)c3)n2C)cc1 [Compound 8c]
Reply: < 10%

Source: paper PMC8079033
